# measurementDescription: qHTS profiling of the MIPE4 collection as inhibitors of Plasmodium falciparum (3D7) proliferation (AID 743344);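 further: scaled between DMSO vehicle wells and 0.29 µM artemisinin as full inhibition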
# conditionDetails: P. falciparum 3D7 in erythrocytes, SYBR Green DNA fluorescence, 72 h; at 28.5 µM unless noted
Parameter parasite growth, % of DMSO control: see the listing below.
Reply with just the number (in %).

Solved cases below.
O=C(N[C@@H](c1ccccc1)[C@@H]1CCCCN1)c1cccc(C(F)(F)F)c1Cl; 9.06
CC(C)C[C@H](CC(=O)O)C(=O)N[C@@H](Cc1c[nH]c2ccccc12)C(=O)N[C@@H](C)c1ccccc1; 79.9

Okay, now this molecule:
### Prompt // query parasite growth, % of DMSO control value for entry Cc1cccc(Nc2nc(-c3ccncc3)cs2)c1
### Response 29.1

---

# measurementDescription: qHTS of pediatric cancer cell lines to identify multiple opportunities for drug repurposing: Primary screen for BT-12 cells (AID 1347101); further: nearly all actives have a fitted effect of over 25% in size
# conditionDetails: BT-12 viability, CellTiter-Glo luminescence, 48 h; series mostly up to 57.3 µM
Results filed as inconclusive are left out. Active and inactive are the calls of the source. The call rests on the fitted dose curve; in most records, active means well fitted cell-killing curve with a large enough effect; inconclusive means small, poorly fitted or top-dose-only effect; inactive means flat fitted curve, though single readings scatter.
// one of TRUE for active, FALSE for inactive, no free text

COc1cc2c(cc1OC)CN(CCc1ccc(NC(=O)c3cc(OC)c(OC)cc3NC(=O)c3cnc4ccccc4c3)cc1)CC2; FALSE

### Prompt What outcome does the record of this test show for C[C@H](NC(=O)c1sccc1OCc1ccc(Cl)cc1)c1ccccc1 ?
### Response TRUE

### Prompt Please share the test call associated with CCOC(=O)O[C@]1(C(=O)OCCl)CC[C@@H]2[C@H]3CCC4=CC(=O)C=C[C@]4(C)[C@@H]3[C@@H](O)C[C@@]21C .
### Response FALSE

### Prompt Tell me the recorded outcome of this test for CCN(CC)C(=O)c1ccc(O)c(OC)c1 .
### Response FALSE

### Prompt Given CCc1ccc(C=C2SC(=S)NC2=O)cc1 , state the outcome it received in this test.
### Response FALSE

### Prompt Record lookup: outcome of this test for Nc1ncnc2c1nc(Cl)n2[C@@H]1O[C@H](CO)[C@@H](O)[C@@H]1O ?
### Response FALSE

### Prompt State the result this test recorded for CCCNC(=O)NS(=O)(=O)c1ccc(Cl)cc1 .
### Response FALSE

---

# measurementDescription: qHTS of pediatric cancer cell lines to identify multiple opportunities for drug repurposing: Primary screen for NB1643 cells (AID 1347099); further: nearly all actives have a fitted effect of over 50% in size
# conditionDetails: NB1643 neuroblastoma viability, CellTiter-Glo luminescence, 48 h; series mostly up to 46 µM
# Description: Drug repurposing or repositioning has been offered as a strategy for drug development in oncology programs. This approach has special potential for childhood cancers and other rare or orphan diseases, where the expected return on new drug development has been a disincentive to pharmaceuticals. […] We employed a titration-based paradigm (quantitative high-throughput screening or qHTS), where all compounds were tested at multiple concentrations for their effect on cell viability. […]
Records with an inconclusive call do not appear. The source made the active and inactive calls. Calls follow the shape of the dose curve; as a rule, active = well fitted cell-killing curve with a large enough effect; inconclusive = small, poorly fitted or top-dose-only effect; inactive = no such curve, though single readings can be large or run the other way.
Mark one answer only. Choices: active, inactive

Study these solved cases before continuing.
CCOC(=O)O[C@]1(C(=O)OCCl)CC[C@@H]2[C@H]3CCC4=CC(=O)C=C[C@]4(C)[C@@H]3[C@@H](O)C[C@@]21C; inactive
O=C1C(Cl)=C(NCCN2CCOCC2)C(=O)c2ncccc21; active
C[C@H](NC(=O)C(=O)Nc1ccccc1C(C)(C)C)C(=O)N[C@@H](CC(=O)O)C(=O)COc1c(F)c(F)cc(F)c1F; active

Okay, now this compound:
### Prompt What outcome does the record of this test show for C=C1C(=O)OC2C=C(C)CCC=C(C)CCC12 (centres undefined) ?
### Response active

---

# Test system: WaGa
# measurementDescription: qHTS assay to identify novel small-molecules to repurpose for Merkel cell carcinoma treatment (AID 1296009); further: nearly all actives have a fitted effect of over 60% in size
# conditionDetails: MCC and control cell lines, CellTiter-Glo viability, 72 h; series mostly up to 46 µM
Inconclusive results are not listed. Activity calls are given as the source filed them. Calls come from the whole dose curve; as a rule, active = well fitted inhibition curve with a large enough effect; inconclusive = small, poorly fitted or top-dose-only effect; inactive = flat fitted curve, though single readings scatter.
# valid calls are active, inactive; nothing else

C=CCc1ccc(O)c(-c2ccc(O)c(CC=C)c2)c1; inactive
CC(=O)Oc1cc2c(s1)CCN(C(C(=O)C1CC1)c1ccccc1F)C2 (stereo not given); active
CCCCCN(C)CCC(O)(P(=O)(O)O)P(=O)(O)O; inactive
CS(=O)(=O)N(Cc1ccco1)CC(O)Cn1c2ccccc2c2ccccc21 (stereo not given); inactive

Now look at this one.
### Prompt For this compound, state the assay outcome: CC(=Cc1ccccc1)C=C1SC(=S)N(CC(=O)O)C1=O
### Response inactive

---

# measurementDescription: Cell Viability - MRC5 (AID 434);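 further: cells exposed to compound for 40 hours at 37 °C; potency reflects cytotoxicity seen as loss of intracellular ATP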
# conditionDetails: MRC5 lung fibroblast viability, qHTS
Results filed as inconclusive are left out. Activity calls are given as the source filed them. Calls follow the shape of the full dose curve.
Reply using exactly one outcome from Y for active, N for inactive

Please review the entries below; each comes with its answer.
CC(=O)O[C@]1(C(C)=O)CC[C@H]2[C@@H]3C=C(Cl)C4=CC(=O)[C@@H]5C[C@@H]5[C@]4(C)[C@H]3CC[C@@]21C; N
CC/C(=C(\c1ccccc1)c1ccc(OCCN(C)C)cc1)c1ccccc1; Y
CC(=O)c1ccc(S(=O)(=O)NC(=O)NC2CCCCC2)cc1; N
CN(C)CCC(c1ccccc1)c1ccccn1 (centres undefined); N
O=C1NC(=O)C(c2ccccc2)(c2ccccc2)N1; N
CCn1cc(C(=O)O)c(=O)c2ccc(C)nc21; N
O=C(O)Cc1cccc2ccccc12; N
CC1=C(/C=C/C(C)=C/C=C/C(C)=C/C(=O)Nc2ccc(O)cc2)C(C)(C)CCC1; Y

### Prompt Hello, I am checking results. What call was entered for CCCNC(=O)NS(=O)(=O)c1ccc(Cl)cc1 ?
### Response N

---

# measurementDescription: qHTS profiling of the MIPE4 collection as inhibitors of Plasmodium falciparum (DD2) proliferation (AID 743345)
# conditionDetails: P. falciparum Dd2 in erythrocytes, SYBR Green DNA, 72 h; at 28.5 µM unless noted
Param label: returns label 1 when parasite growth remaining, % of DMSO control (lower = more inhibition) < 80%, returns label 0 otherwise, including exact equality.

Worked set:
O=C(O)CCC1CCC(c2cc(F)ccc2F)(S(=O)(=O)c2ccc(Cl)cc2)CC1 (centres undefined); label 0
COc1ccc2c(Oc3ccc(NC(=O)c4c(C)n(CC(C)(C)O)n(-c5ccccc5)c4=O)cc3F)ccnc2c1; label 1
CC[C@H]1OC(=O)[C@H](C)C(=O)[C@H](C)[C@@H](O[C@H]2O[C@H](C)C[C@H](N(C)C)[C@@H]2O)[C@](C)(OC)C[C@@H](C)C(=O)[C@H](C)[C@H]2N(CCCCn3cnc(-c4cccnc4)c3)C(=O)O[C@]12C; label 1

### Prompt Please let me know if CC[C@@H]1C=C(C)C[C@H](C)C[C@H](OC)[C@H]2O[C@@](O)(C(=O)C(=O)N3CCCC[C@@H]3C(=O)O[C@H](C(C)=C[C@@H]3CC[C@H](Cl)[C@H](OC)C3)[C@H](C)[C@@H](O)CC1=O)[C@H](C)C[C@H]2OC shows parasite growth remaining, % of DMSO control (lower = more inhibition) below 80%.
### Response label 1

### Prompt Decide: parasite growth remaining, % of DMSO control (lower = more inhibition) of c1ccc2c(Cc3c[nH]c4ccccc34)c[nH]c2c1 strictly below 80%?
### Response label 1

### Prompt Does this molecule meet the criterion parasite growth remaining, % of DMSO control (lower = more inhibition) < 80%? O=c1ccn([C@@H]2O[C@H](CO)[C@H](O)[C@H]2O)c(=O)[nH]1
### Response label 0

### Prompt For CC(C)(C)COc1ccc(-n2cc(C(=O)O)cn2)cc1C#N , is the recorded parasite growth remaining, % of DMSO control (lower = more inhibition) below the cut-off of 80%?
### Response label 0

### Prompt hey, is parasite growth remaining, % of DMSO control (lower = more inhibition) for COc1ccc(-c2nc(N3CCOCC3)c3sc(CN(C)c4ncc(C(=O)NO)cn4)cc3n2)cn1 lower than 80% or not?
### Response label 1

### Prompt Is parasite growth remaining, % of DMSO control (lower = more inhibition) of O=c1cc(-c2ccccc2)oc2cc(O)cc(O)c12 strictly below 80%?
### Response label 0

### Prompt parasite growth remaining, % of DMSO control (lower = more inhibition) strictly < 80% for this molecule? COc1ccc(-c2oc3c(CC=C(C)C)c(OC4O[C@H](CO)[C@@H](O)[C@H](O)[C@@H]4O)cc(O)c3c(=O)c2OC2O[C@@H](C)[C@H](O)[C@@H](O)[C@@H]2O)cc1 (some centres undefined)
### Response label 1

### Prompt Strictly below 80% in parasite growth remaining, % of DMSO control (lower = more inhibition)? CO[C@H]1C=CO[C@@]2(C)Oc3c(C)c(O)c4c(O)c(c5c(c4c3C2=O)NC2(CCN(CC(C)C)CC2)N=5)=NC(=O)C(C)=CC=C[C@H](C)[C@H](O)[C@@H](C)[C@@H](O)[C@@H](C)[C@H](OC(C)=O)[C@H]1C
### Response label 1

### Prompt Does CC(C)(C)NC(=O)Nc1cccc(Nc2ncc(F)c(NC(C)(C)CO)n2)c1 have parasite growth remaining, % of DMSO control (lower = more inhibition) strictly under 80%?
### Response label 1

### Prompt Decide: parasite growth remaining, % of DMSO control (lower = more inhibition) of Cn1c(N2CCCCS2(=O)=O)nc(C(=O)NCc2ccc(F)cc2)c(O)c1=O strictly below 80%?
### Response label 0

### Prompt Hi there! Is parasite growth remaining, % of DMSO control (lower = more inhibition) for COC[C@@H](c1ccc(C(F)(F)F)cc1)N1CCN(C2(C)CCN(C(=O)c3c(C)ncnc3C)CC2)C[C@H]1C below 80%, do you know?
### Response label 0

### Prompt is_below(parasite growth remaining, % of DMSO control (lower = more inhibition), 80%) for O=C(O)c1c(Cl)c(Cl)c(Cl)c(Cl)c1-c1c2cc(I)c(=O)c(I)c-2oc2c(I)c(O)c(I)cc12 ?
### Response label 0

### Prompt Criterion: parasite growth remaining, % of DMSO control (lower = more inhibition) strictly below 80%. Is it met by O=C1c2ccccc2-[n+]2ccc3c([nH]c4ccccc43)c21 ?
### Response label 1

### Prompt In plain terms, does NC(=O)NN=Cc1ccc([N+](=O)[O-])o1 come in under 80% for parasite growth remaining, % of DMSO control (lower = more inhibition)?
### Response label 1
